Measured EC50 values are reported for all entries that follow.
target: AMPK; test: AMPK activation, enzyme-linked immunosorbent assay; format: biochemical; conditions: Table 2, AMPK activation, ELISA

Completed entries (count: 3):
{"smiles.input": "O=C(N[C@@H]1CCN(Cc2ccc(F)cc2)C1)c1ccc(OC2CCN(c3ccc(C(F)(F)F)cc3)CC2)cn1", "EC50": "500 to 1000 nM"}
{"smiles.input": "O=C(NC1CCN(Cc2ccc(F)cc2)CC1)c1ccc(OC2CCN(c3ccc(C(F)(F)F)cc3)CC2)nc1", "EC50": "< 100 nM"}
{"smiles.input": "COC(=O)c1ccc(CN2CCC(NC(=O)c3ccc(OC4CCN(c5ccc(C#N)cc5)CC4)cn3)CC2)cc1", "EC50": "< 100 nM"}

Exercise: What measured EC50 goes with O=C(N[C@H]1CCN(Cc2ccc(F)cc2)C1)c1ccc(OC2CCN(c3ccc(C(F)(F)F)cc3)CC2)cn1 ?
Solution: 100 to 500 nM

Exercise: Try the compound O=C(NC1CCNCC1)c1ccnc(OC2CCN(c3ccc(C(F)(F)F)cc3)CC2)c1
Solution: 1000 to 5000 nM

Exercise: Try this compound too: O=C(NC1CCN(Cc2ccc3ccccc3c2)CC1)c1ccc(OC2CCN(c3ccc(C(F)(F)F)cc3)CC2)cn1
Solution: 500 to 1000 nM

Exercise: Next entry: CC(C)(C)OC(=O)N1CC[C@@H](NC(=O)c2ccc(OC3CCN(c4ccc(C(F)(F)F)cc4)CC3)cn2)C1
Solution: 100 to 500 nM

Exercise: Next compound up: O=C(NC1CCN(Cc2ccc(F)cc2)CC1)c1cc(OC2CCN(c3ccc(C(F)(F)F)cc3)CC2)ccn1
Solution: 100 to 500 nM

Exercise: Also need N#Cc1ccc(CN2CCC(NC(=O)c3cc(OC4CCN(c5ccc(C(F)(F)F)cc5)CC4)ccn3)CC2)cc1 , thanks.
Solution: < 100 nM

Exercise: How about this compound: O=C(NC1CCN(Cc2ccncc2)CC1)c1cccc(OC2CCN(c3ccc(C(F)(F)F)cc3)CC2)n1
Solution: 1000 to 5000 nM

----------
molecular target: AMPK; experiment: AMPK activation, enzyme-linked immunosorbent assay; assay type: biochemical; settings: Table 4, AMPK activation, ELISA
pEC50: −log10 of the molar value. Counter-ions that a name gives are not always drawn.
Measured pEC50 by item

These solved cases illustrate the format of a correct answer.
{"compound": "CN(C(=O)c1cc2cc(OC3CCN(c4ccc(C(F)(F)F)cc4)CC3)ccc2o1)C1CCN(Cc2cccc(C#N)c2)CC1 [Compound 110]", "measurement.type": "pEC50", "value": "> 7.00"}
{"compound": "CN(C(=O)c1cc2cc(OC3CCN(c4ccc(C(F)(F)F)cc4)CC3)ccc2o1)C1CCN(Cc2ccc(C#N)cc2)CC1 [Compound 107]", "measurement.type": "pEC50", "value": "> 7.00"}
{"compound": "O=C(NC1CCNCC1)c1cc2cc(OC3CCN(c4ccc(C(F)(F)F)cc4)CC3)ccc2o1 [Compound 86, hydrochloride]", "measurement.type": "pEC50", "value": "< 4.30"}

Exercise: Please look up its pEC50: O=C(NC1CCN(Cc2ccccc2)CC1)c1cc2cc(OC3CCN(Cc4ccc(Cl)cc4)CC3)ccc2o1 [Compound 72]
Solution: 6.30 to 7.00

Exercise: Would you mind doing CN(C(=O)c1cc2cc(OC3CCN(c4ccc(C(F)(F)F)cc4)CC3)ccc2o1)C1CCNCC1 [Compound 103] as well?
Solution: 5.00 to 6.00

Exercise: Here is the next compound: CN(C(=O)c1cc2cc(OC3CCN(c4ccc(C(F)(F)F)cc4)CC3)ccc2o1)C1CCN(C(=O)c2ccncc2)CC1 [Compound 118]
Solution: 6.30 to 7.00

Exercise: Next compound: Cc1c(C(=O)NC2CCN(Cc3cccnc3)CC2)oc2cc(OC3CCN(c4ccc(C(F)(F)F)cc4)CC3)ccc12 [Compound 69]
Solution: > 7.00
